assay.target: full-length human GLP1R on HEK293/CRE-Luc/hGLP1R cells (human, UniProt P43220 24-463)
method: cell-based or functional assay
value.type: CRE-luc S/N (fold)
Kindly provide the numeric value in fold only, without the unit symbol.

REGN8070-M3190 (antibody, human IgG4 S228P, kappa, V domains shown, linker-payload M3190 (LP11) on Gln 3 of the N-terminal Q-tag LLQGSG, antibody-tethered drug conjugate; also called REGN8070 ATDC) VH: QVQLVESGGGVGQPGRSLRLSCAASGFTFSRNAMHWVRQAPGKGLEWVAVISYDGSNKHYADSVKGRFTISRDNSKNTLYLEMNSLRVEDTAVYYCAKGGIPFDYWGQGTLVTVSS VL: DIVMTQSPLSSPVTLGQPASISCRSSQSLVHFDGNTYLSWLHQRPGQPPRLLIYKISNRFSGVPDRFSGSGAGTDFTLKISRVEPEDVGVYYCMHATQFPYTFGQGTKLEIKR
71.8

// lookup CRE-luc S/N for XXGTXTSDXX (CapAib-E*-G-T-F*-T-S-D-AA2-AA1: CapAib = 3-((2-(1H-imidazol-5-yl)ethyl)amino)-2,2-dimethyl-3-oxopropanoic acid; E* = (S)-2-amino-3-(2H-tetrazol-5-yl)propanoic acid; F* = (S)-2-amino-3-(2-fluorophenyl)-2-methylpropanoic acid; AA2 = biphenylalanine derivative carrying the amino-PEG8-triazole linker; AA1 = (S)-2-amino-5-(3,5-dimethylphenyl)pentanamide) [GLP1R agonist linker-payload LP11 (NH2-PEG8-triazole-P8)] 62

// lookup CRE-luc S/N for REGN8072-M3190 (antibody, human IgG4 S228P, kappa, V domains shown, linker-payload M3190 (LP11) on Gln 3 of the N-terminal Q-tag LLQGSG, antibody-tethered drug conjugate; also called REGN8072 ATDC; anti-GLP1R mAb4-LP11) VH: QVQLVESGGGVVQPARSLRLSCAASGFAFSRSAMHWVRQAPGKGLEWVAVISYDGSNKYYTDSVKGRFTISRDNSKNTLYLQMNTLRAEDTALYYCAKMYTTMDSFDYWGQGTLVTVSS VL: DIQLTQSPSFLSASVGDRVTITCWASQGISSYLAWYQQKPGKAPKLLIYAASTLQSGVPSRFSGSGSGTEFTLTISSLQPEDFALYYCQQLNSYPRTFGQGTKVEIKR 80.7
